system: 786-0 renal; assay: NCI-60 one-dose screen, 48 h (100 = growth as untreated, 0 = no growth, -100 = all killed); conditions: 10 µM unless noted
About 83,000 compounds went through this panel and 20% of them were active in at least one assay; those are over-represented in the sample as a whole.
In this section, each of the molecules is paired with its reported growth.
Lab book: enter the figure in %, no units written.

The following molecules have reported results that may help.
- molecule: "O=C(Nc1ccc(Cl)cc1)N1CCN(c2ccc3nncn3n2)CC1"
  growth (%): -85.9
- molecule: "COc1cc(C(=O)NN=C2c3ccccc3-c3ccccc32)cc(OC)c1OC"
  growth (%): 41.9
- molecule: "CCn1c(-c2nonc2Nc2ccc(OC)cc2)nc2ccccc21"
  growth (%): 95.1
- molecule: "O=c1oc2ccc(Cl)cc2c(=O)n1-c1cc(C(F)(F)F)cc(C(F)(F)F)c1"
  growth (%): -11.8
- molecule: "S=C1NC2(c3ccccc3)CCC(=S)N2c2ccccc21 (stereo unspecified)"
  growth (%): 104

Q: // lookup growth for CN(C)CCNc1cc(-c2ccccc2)nc2ccccc12
Ans: -79.2

====

system: NCI-H322M lung; assay: NCI-60 one-dose screen, 48 h (100 = growth as untreated, 0 = no growth, -100 = all killed); conditions: 10 µM unless noted
Compounds without any hit were thinned out: in the full panel of roughly 83,000, 20% have a hit.
value-type: growth (%)
Express the result in % but write the number alone.

Consider the following illustrative entries.
- molecule: "Clc1ncccc1Nc1ccc2nnc(-c3ccncc3)n2n1"
  value-measured: 106
- molecule: "O=C(NCc1ccco1)C1CN(c2ccc(Cl)cc2)N(c2ccc(Cl)cc2)C1=O (stereo unspecified)"
  value-measured: 68.2
- molecule: "Oc1c(CN2CCN(c3ccccc3F)CC2)cc(Br)c2cccnc12"
  value-measured: 16.7
- molecule: "COc1ccc(-c2c(-c3ccc(OC)c(O)c3)cnc3ncnn23)cc1"
  value-measured: 106
- molecule: "CC1=C(C(=O)OCC2CCN(C(=O)OC(C)(C)C)CC2)[C@H](c2cccc(Br)c2)C2=C(CC(C)(C)CC2=O)N1"
  value-measured: 57.2

Q: I have this molecule here, O=S(=O)(c1ccccc1)n1cc2c(c1-c1ccccc1)CCc1sc(Nc3ccccc3)nc1-2 , and I need its recorded growth.
Ans: 75.6

====

test system: SNB-19 CNS; test: NCI-60 one-dose screen, 48 h (100 = growth as untreated, 0 = no growth, -100 = all killed); details: 10 µM unless noted
About 83,000 compounds went through this panel and 20% of them were active in at least one assay; those are over-represented in the sample as a whole.
Rule: growth of 90% or more gives 1 (yes); anything lower gives 0 (no).

Here's what some known entries look like.
- compound: "O=C(/C=C/c1ccc(F)cc1)c1ccc(Nc2nc(NCCO)nc(Nc3ccc(Cl)cc3)n2)cc1"
  category: "1 (yes)"
- compound: "CC1=NCC2NC(=O)NC(C)=C12 (configuration not stated)"
  category: "1 (yes)"
- compound: "COc1ccccc1C1=C(Br)C(=O)c2nc(C)ccc2C1=O"
  category: "1 (yes)"
- compound: "CCOC(=O)c1sc(-c2ccc(OS(=O)(=O)C[C@]34CCC(CC3=O)C4(C)C)c(C=O)c2)nc1C"
  category: "0 (no)"

Consider the additional compound presented here.
Q: Check this compound for growth at or above 90%: COc1ccc(-c2nc(-c3ccccc3)c(-c3ccccc3)[nH]2)cc1OC1CCCCC1
Ans: 0 (no)

====

tested on: HS 578T breast; experiment: NCI-60 one-dose screen, 48 h (100 = growth as untreated, 0 = no growth, -100 = all killed); conditions: 10 µM unless noted
This is part of a sample that, as a whole, favours compounds with a hit. Of some 83,000 tested, about 20% had one in any assay.
Categories are assigned from the measured growth using these intervals: low bracket (below 30%), middle bracket (30% to below 90%), high bracket (90% or more)

- compound: "CN1CCN(Cc2ccc(NC(=O)c3cncc(C#Cc4nc(N)nc5[nH]ncc45)c3)cc2C(F)(F)F)CC1"
  target-of-assay: "HS 578T breast"
  category: "high bracket"

Q: Which bin, given its growth, does C#CCn1cc(C=C2C(=O)NC(=O)NC2=O)c2cc(Cl)ccc21 occupy?
Ans: middle bracket

Q: Into which bin does this compound go? O=c1oc2ccc(I)cc2c(=O)n1-c1ccc(I)cc1F
Ans: low bracket

Q: # bin label for Cc1ccc(C(=O)c2oc3ccc4c(C)cc(=O)oc4c3c2C)cc1
Ans: middle bracket

Q: Sort Nc1nc(N)c2c(n1)NC1(C=C(O)c3ccccc31)C1=C(N2)c2ccccc2C1=O (configuration not stated) into one of the categories.
Ans: high bracket

Q: Entry CN1CCN(Cc2ccc(C(=O)Nc3cncc(C#Cc4cnc(N)c5ccccc45)c3)cc2C(F)(F)F)CC1 belongs to which category?
Ans: low bracket

====

test system: MDA-MB-231 breast; assay: NCI-60 one-dose screen, 48 h (100 = growth as untreated, 0 = no growth, -100 = all killed); settings: 10 µM unless noted
About 83,000 compounds went through this panel and 20% of them were active in at least one assay; those are over-represented in the sample as a whole.
value-type: growth (%)
Report only the number, with the unit % understood.

Solved entries (count: 3):
- compound: "O=Cc1c(OCc2cnnn2CC(=O)Nc2ccc(Br)cc2)ccc2ccccc12"
  growth / %: 84.4
- compound: "COc1cc(C2CC(c3ccc(Nc4nc(NCCO)nc(N5CCOCC5)n4)cc3)=NN2c2cc(Cl)cc(Cl)c2)cc(OC)c1OC (stereo not given)"
  growth / %: 49.2
- compound: "O=c1oc2ccc(F)cc2c(=O)n1-c1ccc(Cl)cc1F"
  growth / %: -17.2

Q: Look at this compound and give its reported growth. COc1cc(C(C)n2cc(-c3ccccc3)nn2)ccc1OC1CCCCC1 (stereo not given)
Ans: 77.9

Q: Please look up its growth: COc1ccc(C2=Nn3c(NN)nnc3SC2)cc1
Ans: 103

Q: # input compound: CCN1C(=O)N(CC)C2C1NN=c1s/c(=C3\C(=O)N(CC(C)(C)C)c4ccccc43)c(=O)n12 (stereo not given) ; wanted: its growth
Ans: 26

Q: Return reported growth; argument: Cc1ccc2cc3c(N)c4c(C)ccc(C)c4nc3nc2c1
Ans: 7.18

Q: Looking for the measured growth of CCOC(=O)c1c(C=O)nc2ccccc2c1/C=C/c1ccc(Cl)cc1 , can you help?
Ans: 87.7

Q: What does the data say about its growth? Entry: Brc1ccc(Oc2ccc(Nc3ncnc4onc(-c5ccccc5)c34)cc2)cc1
Ans: 98.3

Q: Fill in the blank: the reported growth of c1ccc2c(c1)oc1cc3sccc3nc12 is ____.
Ans: 101

Q: Recorded growth of COc1cccc(-c2nn(C)c3sc(C(=O)NCCN4CCN(c5ccccc5F)CC4)cc23)c1 , please.
Ans: 30.8

Q: // lookup growth for O=c1oc2ccc(F)cc2c(=O)n1-c1ccc(I)cc1F
Ans: -25.4

Q: Give its growth value. Item: NNC(=O)CNC(=O)Nc1n[nH]c(=S)s1
Ans: 112

Q: Any idea what growth was measured for O=Cc1c(OCc2cnnn2CC(=O)Nc2ccc(Cl)cc2)ccc2ccccc12 ?
Ans: 98

Q: I'd like to know its growth. The compound in question is CC(=O)c1ccc2oc(=O)n(Cc3ccc(C#N)cc3)c(=O)c2c1
Ans: 107

====

growth values by entry
tested on: HCC-2998 colon; assay: NCI-60 one-dose screen, 48 h (100 = growth as untreated, 0 = no growth, -100 = all killed); conditions: 10 µM unless noted
The panel holds about 83,000 compounds, 20% with a hit somewhere; the sample as a whole holds those more often.
Reply with just the number (in %).

Q: # value lookup — system HCC-2998 colon, readout growth, item CCOC(=O)c1sc(-c2ccc(OS(=O)(=O)c3ccc(Br)s3)c(C=O)c2)nc1C
Ans: 82.5

====

# growth values compiled below
system: UACC-257 melanoma; experiment: NCI-60 one-dose screen, 48 h (100 = growth as untreated, 0 = no growth, -100 = all killed); settings: 10 µM unless noted
This is part of a sample that, as a whole, favours compounds with a hit. Of some 83,000 tested, about 20% had one in any assay.
# number only, unit % dropped from output

# example entries with known answers
- compound: "O=C(CN1C=NC2C(N3CCOCC3)=NC=NC21)c1ccc(Br)cc1 (stereo not given)"
  target-of-assay: "UACC-257 melanoma"
  unit-spec: "%"
  growth: 105
- compound: "Cc1nc2ccccc2c(/C=C/c2ccccc2)c1C(=O)/C=C/c1ccc(Cl)cc1"
  target-of-assay: "UACC-257 melanoma"
  unit-spec: "%"
  growth: 29.9
- compound: "O=C(Nc1ccc(Cl)cc1)c1cc2ccccc2cc1OP(=O)(O)O"
  target-of-assay: "UACC-257 melanoma"
  unit-spec: "%"
  growth: 15.7
- compound: "COc1ccc(Cn2cc(Cn3c(=O)c(-c4nc5ccccc5[nH]4)cc4ccccc43)nn2)c(OC)c1OC"
  target-of-assay: "UACC-257 melanoma"
  unit-spec: "%"
  growth: 46.9
- compound: "O=C(NCc1ccco1)C1CN(c2ccc(Cl)cc2)N(c2ccc(Cl)cc2)C1=O (stereo not given)"
  target-of-assay: "UACC-257 melanoma"
  unit-spec: "%"
  growth: 69.1
- compound: "O=C1c2ccccc2C(=O)c2c1ccc1[nH]c(CCl)nc21"
  target-of-assay: "UACC-257 melanoma"
  unit-spec: "%"
  growth: 28.8
- compound: "CN1C(=O)N(C)C2C1NN=c1s/c(=C\\c3c[nH]c4ccccc34)c(=O)n12 (stereo not given)"
  target-of-assay: "UACC-257 melanoma"
  unit-spec: "%"
  growth: 79.5
- compound: "COc1ccc(Cn2c(Br)c3c(c2Br)-c2nc(N)sc2CC3)cc1"
  target-of-assay: "UACC-257 melanoma"
  unit-spec: "%"
  growth: 70.4

Q: Name the recorded growth for COc1ccc(-n2c(C(O)c3ccccc3)n[nH]c2=S)cc1 (stereo not given) .
Ans: 90.4

Q: Tell me the measured growth of O=C(NCc1ccccc1)C1CN(c2ccc(Cl)cc2)N(c2ccc(Cl)cc2)C1=O (stereo not given) , please.
Ans: 79.4

Q: Entry Nc1nc(Nc2cccc(F)c2)nc2ccccc12 has what growth?
Ans: 12

Q: What does the data say about its growth? Entry: Cc1ccc2cccc(Oc3ccc(Nc4ncnc5onc(-c6ccccc6)c45)cc3)c2n1
Ans: 89

Q: Fill blank: measured growth of the compound COc1cc2nc(NC3CCC3)nc(NC3CCN(C(C)C)CC3)c2cc1OC is ____.
Ans: -59.9

Q: So what's the measured growth for this one? CC[C@H](C)[C@@H](C(=O)OC)n1cc(CNC(=O)[C@@H](Cc2ccccc2)NC(=O)OCc2ccccc2)nn1
Ans: 95.8

Q: Return reported growth; argument: Cc1ccc(Cc2cnc(NC(=O)CN3C(=O)/C(=C\c4ccccc4)SC3=S)s2)cc1
Ans: 107

Q: Using the record for CCC1=C[C@]2(C3CC(=O)N(c4ccccc4)C3=O)CC(C(C)(C)C)C[C@@H]2[C@@H]2C(=O)N(c3ccccc3)C(=O)[C@H]12 (stereo not given in full) , report its growth.
Ans: 57.1

Q: Quick check: growth of Cn1c(/C=C(\C#N)c2ccccc2)nc2c(N3CCOCC3)nc(Cl)nc21 ?
Ans: -61.5

Q: // growth lookup, key: COc1cc2nc(-c3cccc4cccnc34)nc(NC3CCN(Cc4ccccc4)CC3)c2cc1OC
Ans: -62.4

Q: // query growth value for entry CNCCNc1nc2ccccc2c2c(=O)c3cccc(OC)c3sc12
Ans: 64

Q: Please give the measured growth for this compound: CN1CCN(c2nc(Nc3ccc(O)cc3)nc3ccccc23)CC1
Ans: 59.2

Data origin, for the record: PubChem BioAssay (NCI)
